# System: MS2 coat protein
# test.summary: apparent KD of MS2 coat protein; higher = weaker reporter binding
# condition.details: Eterna round: R107; input ligand: arginine 13.2 mM
Task for the reader: assign each of the following sequences its reported apparent KD of MS2 coat protein.
Give bare numbers, in µM.

>  <sequence.chain>
CGAUACGUAACUGAUACCAGUGUACUGACAUGAGGAUCACCCAUGUUGGGUUUUGUUGUACACCCUUGGCAGCAGAAUCGUAUCG [AstrosExyTheB#18]

>  <reported.result>
0.0521

$$$$

Dear colleague, could you send me apparent KD of MS2 coat protein for each of the items below? Thanks.
1. GAAUUUAUAUGAAGGAGCGUCGAAAAUGGGUAAACAUGAGGAUCACCCAUGUAAAGGGAACGACAGGUAGGUCGCAUAUGGAUUC [AstromonsSSArgB#26]
2. CCUCAAUCGUCGGCCGCCACUGGAUCAUGCGGAUACAUGAGGAUCACCCAUGUGGGUGUGGUACGCAGGACCGGGACAAGACCCG [#15 Same State - Tryptophan B]
3. AGUCUUAAUGGAAGGAGCGCAGUCAUAACAUGAGGAUCACCCAUGUCGAGGUGAGGGUCAUUGCAGGUAGGUCGCCAUACUAAGA [Same State - Arginine B (Freestyle 3)]
4. ACAUGAGGGAUGGAUACCAGCGACAUGAGGAUCACCCAUGUAUGAGGAUCAGCCAUGUUAUGCCCUUGGCAGCCACGAACAUCAG [EDEMULLIN]

1. 0.114
2. 0.164
3. 0.125
4. 0.0273

// for each sequence in input: emit apparent KD of MS2 coat protein
1. CAUGAUAAGUUGGAUACCAGCAUAUGGAACAACAUGAGGAUCACCCAUGUCAAAUGACAUUGCCCUUGGCAGCCACCUACUGUCA [theeternabot_sameState_MS2_Theo_B_5]
2. UAAUGCAGGUCGGCCGCCACUACAAACAUGAGGAUCACCCAUGUAGUUACUGGGUGAAGUGGCAGUAGGACCGGGACCUGCAUAA [Trp-Ms2-T'-M'-T''_Design1]
3. UAGUUGUAGUCGGCCGCCACUGUGAGCAUGGUUAACAUGAGGAUCACCCAUGUCCCGUACUAUAACAGGACCGGGACGUAGUUGC [#10 Same State - Tryptophan B]

1: 0.0212; 2: 0.102; 3: 0.0311

Each sequence below has a recorded value; state its apparent KD of MS2 coat protein.
1. UGGCAGUACAUGGGUUACUGCCAAGGUGAUACCAGCAUCGAAAGAUGCCCUUGGCAGCACCAACAUGAGGAUCACCCAUGUAAUA [(MT)''-(M)'-(T')-(Theo)-(Ms2)_Design1/22_8]
2. AAUAUAUAUCACGAACUGUGGUGUAUGUUGCGAGGACCGGUACGGCCGCCACUCGACCGGUGGUACAUGAGGAUCACCCAUGUUG [XTryp A #10]

0.0685
0.0356

Give apparent KD of MS2 coat protein for all sequences that follow.
1. UGACAUUGCUCAGAUACCAGACAUGAGCAUCAGCCAUGUACCAAGAGUACAUGUUAAAAUGUCCCUUGGCAGCUGAGCAAUGUCU [Mod of Eli's TheoBX5 #AlternateMS2 v2]
2. UUAUUUAACGGAAGGAGCGCGGAAAUUAAGGUGGGUAAACAUGAGGAUCACCCAUGUAAUCCGCAGGUAGGUCGCCGAUAUUUAU [#24 Exclusion - Arginine B]
3. GGUGGCGUGACGGAUACCAGCCACCACCGAUAGACCACAUGAGGAUCACCCAUGUUGGGUGGCCCUUGGCAGCUGUCGUGCGGCG [#1 Same State - Theophylline B Attempt #17 (HarryS)]
4. UGUUUGGUGCGCGAGUGUUGGAUAAUUGAUACCAGUGUAGAAGUGCGCCCUUGGCAGCGAAUCCUAACAUGAGGAUCACCCAUGU [5.X]
5. AAGCGCACAUGAGGAUCACCCAUGUGCGGCCGAGGACCGGUACGGCCGCCACUCGGAACUAGAAAUAGGAACGGGUAGUGCGCAA [TryptophanA Sol_1]
6. UUGGGUAUGCGAAGGAGCGGGAAAUAUAUAUAUAUAAUCCUAACAUGAGGAUCACCCAUGUCCCAGGUAGGUCGCGCAUAUUUGG [12.J]
7. UCGUUUUAGUCGGCCGCCACUGUGAGCAUGGUUAACAUGAGGAUCACCCAUGUCCCGUACUAUAACAGGACCGGGACGUAGUUGC [#09 Same State - Tryptophan B]

1: 0.0736; 2: 0.0861; 3: 0.082; 4: 0.0491; 5: 0.0106; 6: 0.0406; 7: 0.0764

----------
# Test system: MS2 coat protein
# test.summary: apparent KD of MS2 coat protein; designed switch direction (-1 OFF switch, 1 ON switch): 1; higher = weaker reporter binding
# condition.details: input ligand: FMN 200 uM
endpoint.name: apparent KD of MS2 coat protein (nM)
Give bare numbers, in nM.

>  <sequence.chain>
GCUGCGAUUAACGCCUACAUGAGGAUCACCCAUGUAUGUAGGCAGGAUAUCGUUUGCUUUGCAAACGAGAAGGGCUGUAGUAGC [salish99_SSNG3_R04_004] (Eterna round: R96, puzzle: Same State NG 3)

>  <unit.string>
nM

>  <apparent KD of MS2 coat protein>
39.4

$$$$
>  <sequence.chain>
UUCCCAGCGGGAGGAUAUGGUGCCUUGUUGGUGCUAGAAGGUCCAACAUGAGGAUCACCCAUGUGGGAGUGGUCGAGAGACCUC [SS NG10LRO10] (Eterna round: R96, puzzle: Same State NG 1)

>  <unit.string>
nM

>  <apparent KD of MS2 coat protein>
307

$$$$
>  <sequence.chain>
AGAUCAUGACGAGGAUAUGGUACAUGAGGAUCACCCAUGUAUGUACUAUAACCCGUAUGAGGAAUCCAGAAGGCGUCGUGGUCA [JL SSNG2 1.17] (Eterna round: R96, puzzle: Same State NG 2)

>  <unit.string>
nM

>  <apparent KD of MS2 coat protein>
23.8

$$$$
>  <sequence.chain>
UUCUGACAUGAGGAUCACCCAUGUGAGACAUAUGGAGAAUCUCAGGAUAUCCUGAGGAUCACCCAGGAGAAGGGAGAUCCGACC (Eterna round: R96, puzzle: Same State NG 3)

>  <unit.string>
nM

>  <apparent KD of MS2 coat protein>
32

$$$$

Below: the item to evaluate.
Reported apparent KD of MS2 coat protein for GUAGCAUACCGAGGAUAUUCAUAUAAUAACAUGAGGAUCACCCAUGUAUAUAGGCGAAAGCCUUGGGAGAAGGCGGAAUGCUAC [Xeonanis - 20 Mod64] (Eterna round: R96, puzzle: Same State NG 2) : what is it?
17.1

----------
# Tested on: K4 kissing-loop RNA reporter;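 also: bound reporter read as fluorescence of individual clusters on recovered sequencing chips by microscopy, with normalized cluster intensities fitted with a binding model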
# test.summary: apparent KD of K4 kissing-loop reporter; higher = weaker reporter binding
# condition.details: Eterna round: R107; input ligand: arginine 13.2 mM
Outcome: Y for apparent KD of K4 kissing-loop reporter of at least 0.1 µM; N for anything lower.

>  <sequence.chain>
AAGUGUGUGGCGGCCGCCACUAGAAUCCAGUGAUGUUGGAGUUAUCAUAUAAUUGAUAAUCAACAUAGGACCGGGCCAUAUAGAA [Same State - Tryptophan B (Freestyle 6)]

>  <classification>
Y

$$$$
>  <sequence.chain>
AUGUACACGAUAGUGUACUCCUAGUGAUGUUAGGAUAUGCAGAUAUGCAGAAGGGACAAGUCAUCUGACAAUAGUCGGAUGACAA [FmnAX 10 #OpenEnded #K4Early]

>  <classification>
N

$$$$
>  <sequence.chain>
GAUUCAGUGAUGUUGGAAGGCGAGCGGGAUACCAGCCGAGACUCAGGCCCUUGGCAGCCCACAUAUCCCAGGUAGAUAGUAGAUC [Same State - Theophylline A (Freestyle 8)]

>  <classification>
Y

$$$$
>  <sequence.chain>
GAUAGGAAACUAUCAAAUCGGGAAACCGAUACCAGUAUGGAUUCAUACCCUUGGCAGCGGGAUUAUAAAAUAGGAGUGAUGUUCC [Theophylline A K4 16]

>  <classification>
Y

$$$$
>  <sequence.chain>
AAAUAUUGUUACCUGUUAACAUAGGGCCAACGAGGACCGGUACGGCCGCCACUCGUCUCAUAGCGAGUGAUGUUCGCACCGCCCA

>  <classification>
N

$$$$

Is the recorded value of apparent KD of K4 kissing-loop reporter equal to or greater than 0.1 µM for this sequence? CGGAUGUAGUGAUGUUAUAUAAGAAGUAGACGAGGACCGGUACGGCCGCCACUCGAAACGGCUACUAGCGCGUUGCGAGGUGUGC [ExTryptoA.Ch]
Y

----------
# Test system: MS2 coat protein
# test.summary: apparent KD of MS2 coat protein; designed switch direction (-1 OFF switch, 1 ON switch): 1; higher = weaker reporter binding
# condition.details: input ligand: FMN 200 uM
What apparent KD of MS2 coat protein was measured for each of the following?
One number for each entry, in nM.

>  <sequence.chain>
AACAGUCGGCGAGGAUAUGGACGGACAGGCUUGCCUGUGCGGCUCACAUGAGGAUCACCCAUGUUCUAGAAGGCGCCACUGAGA [Atteve] (Eterna round: R96, puzzle: Same State NG 2)

>  <endpoint.name>
apparent KD of MS2 coat protein

>  <unit.string>
nM

>  <reported.result>
21.3

$$$$

For each of the sequences below, state apparent KD of MS2 coat protein.
1. GUGGUCAGACAUGAGGAUCACCCAUGUGGAAUAAAUAAGGAAAAGGAUAUCUAAUAUAGGAUAUAAGAGAAGGUUUGGUUGGUG (Eterna round: R96, puzzle: Same State NG 3)
2. UGUUAUUUGACAGGAUAUUGAUUGUAAAGUUUUUACAUGAGGAUCACCCAUGUUGUUCAUUCGAACAAGAAGGGUCAAGUUUUU [JR_SSNG2_Sub019] (Eterna round: R96, puzzle: Same State NG 2)
3. GCGCAGCUGCGCAAUAUUACAUGAGGAUCACCCAUGUUGUCACAGGAUAUGCUGGACAGCGUCGAGCAGAAGGGUGACCAAACA [Zasovexe] (Eterna round: R96, puzzle: Same State NG 3)
4. GCUAGGAUAUGACGAGGAUCACCCGUUAGAAGGAGCUUCGGCUAGGAUAUGACGAGGAUCACCCGUUAGAAGGAGCUGUACUCU [pwkr ssNG3 DX 2xF5 +2xFMN.9] (Eterna round: R96, puzzle: Same State NG 3)
5. UAAUUAAGUCAAGGAUAUCACGUCGAUUAGACGUGAGAAGGUGACCAAUACAUGAGGAUCACCCAUGUAAUACAUGAAUAAUUA [SSNG1/12-B2] (Eterna round: R96, puzzle: Same State NG 1)
6. UGGUACAUGGGAGGAUAUCCUCAGGAGACAUGAGGAUCACCCAUGUAAUUUAAGCCGAAAGGCAUGGAGAAGGCCCAUGUACCU [JL SSNG1 3.80] (Eterna round: R96, puzzle: Same State NG 2)

1: 74.1; 2: 1070; 3: 191; 4: 144; 5: 22.7; 6: 19.5

Go through the list and state apparent KD of MS2 coat protein for each entry.
1. GCUAGAAUUAAUGCCUACAUGAGGAUCACCCAUGUAUGUAGGCAGGAUAUCGUUUGCUUUGCAAACGAGAAGGGCCUUACUAGC [JL SSNG3 1.10] (Eterna round: R96, puzzle: Same State NG 3)
2. GCUUGCGGCGCAGGAUAUGGGUGCCUGUACAUGAGGAUCACCCAUGUUAAGGGACGGAAAACGAACCAGAAGGGCGUCGCGAGC [Inraeded] (Eterna round: R96, puzzle: Same State NG 2)
3. AUGGGCAUGCUAGGAUAUUAUAGUAGGCAGCAAUGAGAAGGAGUAUCCCGUUGCUAUCACGCACCACAUGAGGAUCACCCAUGU [Eternabot solution 32] (Eterna round: R96, puzzle: Same State NG 1)
4. AGAGGAAGGGCAGGAUAUACGACGGAGGACGAGGUAGAAGGGUCCAUGUGAUAACAUGAGGAUCACCCAUGUACCGCGCGACGA [AK SSNG1-V2-18] (Eterna round: R96, puzzle: Same State NG 1)
5. CGACACACGGCAGGAUAUGCUUAGCAAAGCUAAGCAGAAGGGCCUCAUGUCGUGGAAACGUGACAUGAGGAUCACCCAUGUUGC [Omei SS(NG)1 Cv1] (Eterna round: R96, puzzle: Same State NG 1)
6. GGCUGCGUUGUGAAGGAUAUCCGCGUCUGGACAUGAGGAUCACCCAUGUAUGCUUGGAUCAUGCCGGAGAAGGUCACGAAUGAUU [JR_SS002_Sub1214] (Eterna round: R96, puzzle: Same State 2)
7. GCUAGAAUAAAUGCUAACAUGAGGAUCACCCAUGUAUGUUGGCAGGAUAUCGUAUGCAAAGCAUACGAGAAGGGCCAUACUAGC [Mat - Same State NG 3 - JL Mod - D27] (Eterna round: R96, puzzle: Same State NG 3)
8. GGUGACUUAAGAGGAUAUCCCGUAACAUUCGUCGAUACGAGACAUGAGGAUCACCCAUGUGAAAUGGAGAAGGCUUUCGCAAAG [Eternabot solution 48] (Eterna round: R96, puzzle: Same State NG 2)

1: 18.9; 2: 84.9; 3: 24.9; 4: 147; 5: 21; 6: 17; 7: 17.3; 8: 52.7

Give apparent KD of MS2 coat protein for each listed item.
1. GAGUAGUUGAAAGGAUAUUGAUUGUUAUAGGAUCAAGAAGGUUCUAACAUGAGGAUCACCCAUGUAGGACUAUUCCUGUGUAUC [Parity 83 - Jieux - Same State NG 1] (Eterna round: R96, puzzle: Same State NG 1)
2. AGAAGACAUGAGGAUCACCCAUGUACCUCAUAAGGAGAGAGCGAGGAUAUGUAGAGAGAGAGGGAACAGAAGGUGUGAGAGGAA [Default title] (Eterna round: R96, puzzle: Same State NG 3)
3. GCAACUCGUAGAGGAUAUGUCCAGCAAGUAUCACAUGAGGAUCACCCAUGUUCAGCUCUACACCUGCAGAAGGCUAUUAGUGCA [Eternabot solution 46] (Eterna round: R96, puzzle: Same State NG 2)

1. 11
2. 218
3. 15.8
